Where do these numbers come from? They come from PubChem BioAssay.

Assay: blockers of DNA damage checkpoint Chk1 activation – imaging, HeLa, hydroxyurea, phospho-Chk1 nuclear intensity, primary screen (AID 1187); further: test concentration not given here
Conditions: hydroxyurea-induced phospho-Chk1 immunofluorescence imaging, higher = more signal
Everything with z-score lower than -0.3 is Criterion not met; everything else, including exactly -0.3, is Criterion met.

- CCN(CC)c1ccc(N2CC=CC34O[C@@H]5C=CCOC(=O)[C@@H]5[C@H]3C(=O)N(CCCCCO)[C@@H]4C2=O)cc1 (stereo partly drawn): Criterion not met
- O=C(NCC(O)CO)[C@@]1(Cc2ccccc2)N=C(c2ccc(OCCCO)cc2)O[C@H]1c1ccccc1 (stereo partly drawn): Criterion met
- C=C(C)[C@@H]1CC=C(C(O)C2C=CC3C(=O)N(Cc4ccccc4)C(=O)C3N2n2cnnc2)CC1 (stereo partly drawn): Criterion met
- C=CCNC(=O)[C@H]1[C@@H]2C(=O)O[C@@H](c3ccccc3)[C@@H](c3ccccc3)N2[C@@H](c2ccc(OCCO)cc2)[C@]12C(=O)N(C(=O)OCCOC)c1ccc(C#CC3(O)CCCCCC3)cc12: Criterion met
- [N-]=[N+]=NCc1ccccc1C[C@]1(C(=O)NCc2ccccc2)COC(c2ccc(OCCCO)cc2)=N1: Criterion not met
- CN(C)CCCC[C@@H]1NC(=O)[C@@H]2C[C@H](C(=O)NCCCCCN)[C@H](c3ccc(O)cc3)N2C1=O: Criterion not met
- CN(C)CCCCCCNC(=O)[C@@H]1C[C@@H]2C(=O)NCC(=O)N2[C@@H]1c1cccc(OCCO)c1: Criterion met
- Cc1ccc(S[C@]2(C(=O)NCC(F)(F)F)CC(=O)N(C3Cc4ccccc4C3)[C@@H]2c2ccc(CO)cc2I)cc1: Criterion met
- C[n+]1ccc2ccc(O)cc2c1: Criterion met
- C/C=C/[C@H](CCn1cc([C@H](O)c2ccccc2)nn1)[Si](C)(C)c1ccc(OC)cc1: Criterion met
- C=CCOC(=O)[C@@H]1[C@H]2C(=O)O[C@H](c3ccccc3)[C@H](c3ccccc3)N2[C@H](c2ccc(OCCOC(=O)[C@H]3C[C@H]4C(=O)N[C@@H](CCCC[N+](C)(C)C)C(=O)N4[C@H]3c3cccc(OCCO)c3)cc2)[C@@]12C(=O)Nc1ccc(I)cc12: Criterion met
- O=C1OCC=C[C@H]2OC34C=CCN(Cc5ccccc5)C(=O)[C@H]3N(CCCO)C(=O)[C@@H]4[C@@H]12 (stereo partly drawn): Criterion not met
- [N-]=[N+]=NCc1ccccc1[C@H]1OC(c2ccc(OCCCO)cc2)=N[C@@]1(Cc1ccccc1)C(=O)O: Criterion not met
- O=C1O[C@H](c2ccccc2)[C@H](c2ccccc2)N2[C@H]1[C@@H](C(=O)NC[C@H](O)c1ccccc1)[C@]1(C(=O)Nc3ccc(C#CC4=CCCCC4)cc31)[C@H]2c1ccc(O)cc1: Criterion met
- O=C1C2C=CC(C(O)C3CC=CCC3)N(n3cnnc3)C2C(=O)N1Cc1ccccc1 (stereo not drawn): Criterion not met
- COC(=O)[C@@]1(Cc2ccc(OC)cc2)[C@H]2c3cc(C(=O)N4CCCC4)n(CCc4ccccn4)c3C[C@H]2CN1C(=O)c1ccccc1: Criterion met
- C#C[C@H]1Oc2ccccc2S(=O)(=O)N2CCC[C@@H]12: Criterion met
- COc1ccccc1CN1C(=O)c2ccccc2[C@](Cc2ccccc2I)(C(=O)NCc2ccccc2)[C@@H]1c1ccc(CO)cc1: Criterion met
- COCCn1c(C(=O)N(C)C)cc2c1C[C@H]1CN(C(=O)c3ccccc3)[C@@](Cc3ccc(F)cc3)(C(=O)OC)[C@@H]21: Criterion met
- CC(C)(C)OC(=O)CC[C@@]1(C(N)=O)N=C(c2ccc(OCCCO)cc2)O[C@@H]1c1ccccc1N=[N+]=[N-]: Criterion met
- O=C1C2C=CC(C(O)c3ccccn3)N(Nc3ccccc3F)C2C(=O)N1c1ccccc1 (stereo not drawn): Criterion met
- O=C1c2ccccc2[C@@]2(Cc3ccccc3N(Cc3ccccc3)C2=O)[C@H](c2ccc(CO)cc2)N1Cc1ccccc1C(F)(F)F: Criterion met
- COCCOC(=O)N1C(=O)[C@@]2(c3cc(C#CC4=CCCCC4)ccc31)[C@H](c1ccc(OCCO)cc1)N1[C@H](c3ccccc3)[C@H](c3ccccc3)OC(=O)[C@H]1[C@@H]2C(=O)Nc1nc2ccccc2s1: Criterion not met
- C[C@H]1C2[C@H](Cc3ccccc3)NC(=O)[C@]23C(=O)N[C@H](Cc2ccccc2)C(=O)N[C@H](Cc2ccccc2)C(=O)NC/C=C/CCC/C=C/C3[C@@H]2O[C@]12C (stereo partly drawn): Criterion met
- COc1ccc([Si](C)(C)[C@H]2[C@H](CC(=O)N(CCO)Cc3ccccc3)O[C@@]3(C(=O)N(Cc4cccc(N5C(=O)c6cccc7cccc5c67)c4)c4ccccc43)[C@@H]2C)cc1: Criterion not met
- COc1ccc([Si](C)(C)[C@@H]2[C@@H](CCO)O[C@]3(C(=O)N(Cc4ccccc4)c4ccc(N(C=O)c5ccccc5)cc43)[C@H]2C)cc1: Criterion not met
- [N-]=[N+]=NCc1ccccc1[C@@H]1OC(c2ccc(OCCCO)cc2)=N[C@]1(Cc1ccccc1N=[N+]=[N-])C(N)=O: Criterion met
- CC(=O)NCCCC[C@@H]1NC(=O)[C@@H]2C[C@H](C(=O)NCc3ccc(F)cc3)[C@H](c3ccc(O)cc3)N2C1=O: Criterion met
